Source: paper PMC12118597

- EXPERIMENTAL_SYSTEM: SARS-CoV-2 NSP3 macrodomain (Mac1) (Severe acute respiratory syndrome coronavirus 2)
- Type: binding
- CONDITION_INFO: crystallographic refinement
READOUT_TYPE: Refined ligand occupancy (%)

Example compounds with recorded Refined ligand occupancy (%):
- CC(C)(O)C1C2CCC2CN1c1ncnc2[nH]ccc12 (stereo not shown) [AVI-4128]: 60%
- CC1(C)CCN(c2ncnc3[nH]ccc23)C(CO)C1 (stereo not shown) [AVI-5994]: 46%
- CC(C)(CO)Nc1ncnc2[nH]ccc12 [AVI-5266]: 40%

If you can, please state the reported Refined ligand occupancy (%) value of C[C@@H]1CCN(c2ncnc3[nH]ccc23)[C@H](CO)C1 [AVI-4064] .
38%

For OCC1C=CCCN1c1ncnc2[nH]ccc12 (stereo not shown) [AVI-5998] , what is its reported Refined ligand occupancy (%)?
38%

What measured Refined ligand occupancy (%) goes with OC1CCN(c2ncnc3[nH]ccc23)C1 (stereo not shown) [AVI-3661] ?
40%

I have this compound here, CC1CCCC(O)(CNc2ncnc3[nH]ccc23)C1 (stereo not shown) [AVI-4307] , and I need its recorded Refined ligand occupancy (%).
34%

Which Refined ligand occupancy (%) reading was recorded for the compound OCC1CC=CCN1c1ncnc2[nH]ccc12 (stereo not shown) [AVI-6002] ?
50%

* * *

- EXPERIMENTAL_SYSTEM: SARS-CoV-2 NSP3 macrodomain (Mac1) (Severe acute respiratory syndrome coronavirus 2, UniProt P0DTD1)
- Format: binding
- CONDITION_INFO: refined crystallographic occupancy
Refined ligand occupancy (%) overview
Please give a number only; it is taken to be in %.

Please review the entries below; each comes with its answer.
* CCC1(O)CCN(c2ncnc3[nH]ccc23)C1 (centres unmarked) [AVI-612] | 34
* OCC1CC2(CCCCC2)CN1c1ncnc2[nH]ccc12 (centres unmarked) [AVI-3727] | 58
* OCC(CC1CCCC1)Nc1ncnc2[nH]ccc12 (centres unmarked) [AVI-3691] | 20

Returns the measured Refined ligand occupancy (%) for the input compound. Input: OC[C@@H]1C[C@H](O)CN1c1ncnc2[nH]ccc12 [AVI-610]
60

What measured Refined ligand occupancy (%) goes with CC1(C)C[C@@H](CO)N(c2ncnc3[nH]ccc23)C1.O=C(O)C(F)(F)F [AVI-3704] ?
66

* * *

- EXPERIMENTAL_SYSTEM: SARS-CoV-2 NSP3 macrodomain (Mac1) (Severe acute respiratory syndrome coronavirus 2, UniProt P0DTD1)
- Assay type: binding
- CONDITION_INFO: soak concentration 10 mM, P43 crystals
READOUT_TYPE: PanDDA run, overall: Hit

- CC(CNC(=O)c1ccc2c(c1)CCC(=O)N2)C(=O)O (stereo not shown): TRUE
- CC1CCN(C(=O)c2ccc3c(c2)nc(CO)n3C)CC1C(=O)O (stereo not shown): TRUE
- COc1ccc(NC(=O)NC2CCCC2)cc1-n1nnnc1C: TRUE
- Cc1sc2ncnc(Sc3ccccc3C(=O)O)c2c1C: TRUE

* * *

- EXPERIMENTAL_SYSTEM: SARS-CoV-2 NSP3 macrodomain (Mac1) (Severe acute respiratory syndrome coronavirus 2, UniProt P0DTD1)
- Assay type: binding
- CONDITION_INFO: PanDDA background density correction, 1-BDC
Assign class by 1-BDC: not lower than 0.2 means t; lower than 0.2 means f.

• OC1(CNc2ncnc3[nH]ccc23)CCCOC1 (stereo not shown) = t
• CNc1ccc(NS(=O)(=O)c2cc3cccc(C)c3s2)cn1 = t
• OCC1CC=CCN1c1ncnc2[nH]ccc12 (stereo not shown) = f
• O=S1(=O)CCCC(O)(CNc2ncnc3[nH]ccc23)C1 (stereo not shown) = t
• OC1(CNc2ncnc3[nH]ccc23)CCC(F)(F)CC1 = f
• CC(C)(C)C1CCCN1c1ncnc2[nH]ccc12 (stereo not shown) = f

I'd appreciate it if you could say whether CC(O)C1CCCN1c1ncnc2[nH]ccc12 (stereo not shown) has 1-BDC at least equal to 0.2.
t

Form field: 1-BDC at least 0.2? Entry: OC1(CNc2ncnc3[nH]ccc23)CC2CCC1CC2 (stereo not shown)
f

Does C[C@H]1CC[C@H](CO)N(c2ncnc3[nH]ccc23)C1 have a reported 1-BDC of at least 0.2?
f

Is 1-BDC for Cc1c[nH]c2ncnc(NCC3(O)CCC(O)CC3)c12 (stereo not shown) at or above 0.2?
f

Reported 1-BDC at or above 0.2? O=C1CCc2cc(C(=O)N3CC(C(=O)O)CCC34CCCC4)c(F)cc2N1 (stereo not shown)
f

Kindly determine if 1-BDC recorded for C[C@@H]1CCN(c2ncnc3[nH]ccc23)[C@H](CO)C1 is above or exactly 0.2.
f

Hi, just wondering whether CC1CCCC(O)(CNc2ncnc3[nH]ccc23)C1 (stereo not shown) shows 1-BDC of 0.2 or higher.
f

Tell me whether 1-BDC is at least 0.2 here: CC(C)(O)C1C2CCCCC2CN1c1ncnc2[nH]ccc12 (stereo not shown)
t

Entry OCC1C=CCCN1c1ncnc2[nH]ccc12 (stereo not shown) : is its 1-BDC no less than 0.2?
f
